Tested on: MDA-MB-231 breast
Experiment: NCI tumour cell line growth inhibition, 48 h; in the data active = GI50 below about 0.43 µM; inactive = the rest
Outcomes: 1.0 (active), 0.0 (inactive)

compound	target.or.test.system	label.value
CSc1nc2c(c(=O)n1C)C(c1ccccc1)C1=C(N2)/C(=C/c2ccccc2)CCC1 (stereo not drawn)	MDA-MB-231 breast	0.0
O=C(CI)Nc1ccc(Br)cc1	MDA-MB-231 breast	0.0
CCc1c(C)c2cc(-n3c(-c4ccc(OC)cc4)csc3=N)c(O)c(C)c2oc1=O	MDA-MB-231 breast	0.0
COc1ccc2c3/c(=C\c4ccc(N(C)C)cc4)c4ccccc4n3[n+](C)c2c1	MDA-MB-231 breast	1.0
CN(C)c1ccc2[nH]c3c(C(N)=O)cc(=O)c(=O)c=3oc2c1	MDA-MB-231 breast	0.0
CCN1C(=O)N(CC)C2C1N=C(SC)N2/N=C/C=C/c1ccccc1OC (stereo not drawn)	MDA-MB-231 breast	1.0
CC/C=C\C[C@H]1C/C=C2/C(=O)C(Cl)=C[C@@H]2C/C=C\CCCC(=O)O1	MDA-MB-231 breast	0.0
CC(=O)c1c(C)c2cnc(Nc3ccc(N4CCNCC4)cn3)nc2n(C2CCCC2)c1=O	MDA-MB-231 breast	0.0
